Recorded TGI by entry
# Test system: MALME-3M melanoma
# Method summary: NCI tumour cell line growth inhibition, 48 h
Where a SMILES comes first, the peptide text is derived from it. The star is where a group is joined. Boc = CC(C)(C)OC(=O)*

• CC(C)(C)OC(=O)NC(Cc1ccccc1)C(=O)N1CCCC1C(N)=O (stereo not drawn) (Boc-Phe-Pro-NH2; configuration not given here) = > 100 µM
• Nc1nc2ccc(NCc3ccc(C(=O)NC(CCC(=O)O)C(=O)O)cc3)cc2c(=O)[nH]1 (centres undefined) = > 100 µM
• OC1CCCCCCCCCCC1SCCCCl (centres undefined) = > 100 µM
• O=C1NC(N/N=C/c2cccs2)=N/C1=C\c1ccco1 = > 100 µM
• CN(C)CCCN1N=Nc2cccc3cccc1c23 = > 100 µM
• Cc1ccc(-c2nc3nc(-c4ccc(Br)cc4)nc(N4CCCNCC4)c3o2)cc1 = 30.1 µM

I'm curious: which TGI was measured for Cc1ccc(Nc2nc3ccccc3c(=O)n2N)cc1 tested on MALME-3M melanoma?
> 100 µM

I'm curious: which TGI was measured for C=Cc1c(C)c(O)cc2c1-c1ccc(O)c(C)c1CC2 tested on MALME-3M melanoma?
45.9 µM

I'm curious: which TGI was measured for O=C1CCc2c(Oc3ccc4c(c3)[C@H]3[C@@H](O4)[C@@H]3c3nc4ccc(C(F)(F)F)cc4[nH]3)ccnc2N1 tested on MALME-3M melanoma?
0.0613 µM

I'm curious: which TGI was measured for OCCCCOC(c1ccccc1)(c1ccccc1)c1ccccc1 tested on MALME-3M melanoma?
> 100 µM
